// reported IC50 for each item listed
- target_or_test_system: Cytochrome P450 1A2 (Homo sapiens, UniProt P05177)
- Sequence (P05177 whole entry): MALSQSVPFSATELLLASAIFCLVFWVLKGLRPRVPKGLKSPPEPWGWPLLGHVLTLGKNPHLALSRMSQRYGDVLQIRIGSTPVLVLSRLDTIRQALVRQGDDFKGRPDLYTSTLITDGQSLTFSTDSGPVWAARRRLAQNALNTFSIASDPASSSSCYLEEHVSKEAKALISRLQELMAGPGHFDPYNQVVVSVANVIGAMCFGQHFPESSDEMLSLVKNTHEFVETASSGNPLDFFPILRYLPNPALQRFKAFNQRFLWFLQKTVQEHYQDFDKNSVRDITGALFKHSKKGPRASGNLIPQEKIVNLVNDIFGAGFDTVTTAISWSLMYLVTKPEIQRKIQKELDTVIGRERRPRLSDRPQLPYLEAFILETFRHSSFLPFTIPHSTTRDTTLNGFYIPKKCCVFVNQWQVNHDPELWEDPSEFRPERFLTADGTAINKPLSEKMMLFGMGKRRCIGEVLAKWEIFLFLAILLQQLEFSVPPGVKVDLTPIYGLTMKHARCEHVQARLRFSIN
- assay_protocol: Inhibition of recombinant human CYP1A2 using 7-ethoxyresorufin as substrate after 50 mins in presence of NADP+ by EROD assay
// note: answer is a bare numeric in nM

>>> endpoint_value("COc1ccc(OC)c2c1c(OC)cc1c(=O)cc(-c3cccc(F)n3)oc12")
668

Reported IC50 for "COc1ccc(OC)c2c1c(OC)cc1c(=O)cc(-c3cncc(Br)c3)oc12" : what is it?
742

###

// reported IC50 for each item listed
- target_or_test_system: UniProtKB P05177
- assay_protocol: Inhibition of recombinant human CYP1A2 using 7-ethoxyresorufin as substrate after 50 mins in presence of NADP+ by EROD assay

Some entries whose results are on file:
>>> endpoint_value("COc1ccc(OC)c2c1c(OC)cc1c(=O)cc(-c3ccnc(N)c3)oc12")
"> 1000 nM"
>>> endpoint_value("COc1ccc(OC)c2c1c(OC)cc1c(=O)cc(-c3c[nH]c4ccccc34)oc12")
"> 1000 nM"
>>> endpoint_value("COc1ccc(OC)c2c1c(OC)cc1c(=O)cc(-c3cc(Cl)cc(N4CCN(C)CC4)c3)oc12")
"> 1000 nM"

Reported IC50 for "COc1ccc(OC)c2c1c(OC)cc1c(=O)cc(-c3cccnc3)oc12" : what is it?
117 nM

Reported IC50 for "COc1ccc(OC)c2c1c(OC)cc1c(=O)cc(-c3ccnc(Br)c3)oc12" : what is it?
> 1000 nM

The measurements presented in this section are drawn from ChEMBL document CHEMBL4732065.
